meta.source: ChEMBL document CHEMBL4513216

- measurementProtocol: Toxicity liver stage against HepG2, at 10uM
- Assay type: cell-based
- Set-up: test concentration 10 uM, cell line HepG2-A16-CD81EGFP
- experimentalConditions: human, HepG2-A16-CD81EGFP cells; read-out: INHIBITION
recordedEndpoint: cytotoxicity at 10 µM (%)
State just the number; it will be interpreted in %.

Note cytotoxicity at 10 µM for the compound shown: O=C1CC[C@H]2[C@H](CCN2C(=O)C2CCCO2)N1Cc1cccnc1 (some centres not stated)
-8.6

Continuing:
Output measured cytotoxicity at 10 µM for this item: Cc1nnc(CNC(C)c2cc(C)c(F)c(C)c2)s1 (configuration not stated)
-3.7

Specify measured cytotoxicity at 10 µM for CCOc1ccc(N2CCC(C(O)c3ccccc3)CC2)nn1 (configuration not stated) .
-2.2

Hello, please tell me recorded cytotoxicity at 10 µM for this one: CC(C)CN(CC(O)c1ccc(F)cc1)C(=O)c1csnn1 (configuration not stated)
2.83

Return cytotoxicity at 10 µM (reported value) for this compound: CN(C)C(=O)C1CCCN1CCCNC(=O)c1cccc2[nH]ncc12 (configuration not stated)
-1.07

Return reported cytotoxicity at 10 µM. Input compound: "CS(=O)(=O)Cc1nc(CN2CC=C(c3ccccc3)CC2)cs1"
5.27

Using known records, supply cytotoxicity at 10 µM for "CN(C)CCOCc1nnc2n1CCN(Cc1ccsc1)C2"
3.02

In one line, give reported cytotoxicity at 10 µM of the entry "CCS(=O)(=O)Nc1ccc2c(c1)C1(CCOCC1)CN2C" .
-107

Using the record for "CN(Cc1ccccc1)C(=O)Cn1nc(N2CCSCC2)ccc1=O" , state its measured cytotoxicity at 10 µM.
0.585

Return cytotoxicity at 10 µM (reported value) for this compound: "Cn1nc2c(cc1=O)CN(c1ncnc3sccc13)CC2"
7.97

Entry "Cc1oncc1C(=O)N1CC[C@H]2[C@H](CO[C@@H]2CNS(C)(=O)=O)C1" needs its cytotoxicity at 10 µM filled in; supply it.
0.0508

State, in one line, measured cytotoxicity at 10 µM of CCOc1ccc(NC(=O)N(CCN(C)C)C(C)c2ccncc2)cc1 (configuration not stated)
5.42

Write down cytotoxicity at 10 µM measured for item "Cc1cccc(CN2CC[C@@H]3[C@@H]2CCN3C(=O)Cc2cccs2)n1"
-114

Return value of cytotoxicity at 10 µM for input "O=C(C1CCCCC1)N1CCC2(CC1)CNCc1ccccc12" , no commentary.
-6.13

Complete the entry with cytotoxicity at 10 µM for CN(CC1(O)CCN(c2ccccn2)C1)C(=O)Cc1ccsc1 (configuration not stated)
-11.7

Provide only the value of recorded cytotoxicity at 10 µM for "c1ccc(CN2CCC3(CC2)CCN(c2ccccn2)C3)nc1"
-128

Look up and report measured cytotoxicity at 10 µM for this entry: "Cc1nn(C)cc1-c1ccnc(N(C)Cc2ccon2)n1"
-8.71

Determine from records and report cytotoxicity at 10 µM for "COc1ccccc1C(C)(C)NC(=O)Nc1ccc(F)c(C(N)=O)c1"
-145
